Reported switch fluorescence ratio values follow for various sequences
# Tested on: ATP;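 note: ATP exposure 15 min at 22 °C before imaging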
# procedure-text: switch fluorescence ratio, 500 uM ATP over buffer (Cy3 cluster intensity, sum of 5 cycles each) (fold (ratio)); higher = stronger signal-on switching upon ATP binding; sequences stand for … in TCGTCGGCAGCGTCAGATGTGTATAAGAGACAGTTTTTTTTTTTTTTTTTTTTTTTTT…TC
# details: aptamer strand: ATP DNA aptamer (quencher-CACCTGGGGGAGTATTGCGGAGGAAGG + anchor), 100 nM annealed; ATP concentration: 500 uM
value-kind: switch fluorescence ratio

* GACGGTTATC | 1.11
* AAGGGGGGAG | 0.986
* TGGAAGGAAG | 1
* GATGCAGTAT | 1.12
* ACTTGATACG | 1.08
* TTTTAGGTCA | 0.99
* CCATCTATCG | 1.03
* AGTTAGGCAA | 1.01
* GCCTGGTCAG | 0.979
* CTTGGGGGCT | 1
* TTTTTCTTCA | 1
* TTTGGGCCGT | 0.971
* CATGTGTTTG | 0.993
* TCCTGTGCTG | 1.09
* AGTGGTGGGC | 0.979
* GAAGGGAAGA | 0.96
* GACGTTTATG | 0.949
* CGGGTGTGGA | 1.05
* TATAATGGCT | 0.955
* GGCACTAGGG | 0.94
* CCGACCAGGG | 1.3
* TTGTGCTGCC | 1.05
* CGGGGAGAGC | 1.03
* AGGGTATTCG | 0.998
* ATCCCCATGG | 1.91
* ACTGGTTTGG | 1.04
* TTGTGTATGG | 1.02
* AGACGGGGTC | 0.985
* AATGTTAATG | 0.94
* GACGAGGAGG | 1
* ATAGGAGTAT | 1.01
* ACATTCTATT | 1.01
* TGTTTTCGCT | 0.997
* CGATGAGGGG | 0.967
* TATAGCGCTT | 0.991
* TAGTAGGCCA | 1.01
* TGACGCAAGG | 2.8
* TATTACTTAG | 1.06
* GATGTGGGGT | 0.987
* GGGATTTGTT | 0.989
* TGTATAAAGT | 0.986
* TTTGGAAAGC | 1.04
* ATCAATTGTT | 0.989
